Reference source for all entries: patent US20190225692A1

Overview of recorded % cells in E6 tet+/CD8+ quadrant for various binders
biological target: T1, HLA-A2/E6 (29-38) tetramer (human; HPV 16); assay: tetramer flow cytometry; transfected 1:1 CD4+ and CD4+/CD8+ Jurkat-derived cells;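 also: cell mixtures transiently transfected with TCR-encoding plasmids, analysed by flow cytometry 48 h later after HLA-A*02:01 E6 tetramer staining combined with anti-CD8 antibody co-staining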
T1 construct: also called E6(29-38) peptide-MHC tetramer; E6(29-38)-loaded tetramer
The reply should be a number in %, with the unit left off.

binder="TCR 18 (codon optimized, cysteine modified version) (TCR, V domains shown) V domain 1: KQEVTQIPAALSVPEGENLVLNCSFTDSAIYNLQWFRQDPGKGLTSLLLIQSSQREQTSGRLNASLDKSSGRSTLYIAASQPGDSATYLCAEGNAGGTSYGKLTFGQGTILTVHP V domain 2: DVKVTQSSRYLVKRTGEKVFLECVQDMDHENMFWYRQDPGLGLRLIYFSYDVKMKEKGDIPEGYSVSREKKERFSLILESASTNQTSMYLCASSFWGRSNSPLHFGNGTRLTVTE" number=23.3

Consider now this further binder.
I have this binder here, TCR 28 (codon optimized, cysteine modified version) (TCR, V domains shown) V domain 1: RKEVEQDPGPFNVPEGATVAFNCTYSNSASQSFFWYRQDCRKEPKLLMSVYSSGNEDGRFTAQLNRASQYISLLIRDSKLSDSATYLCVVRGGGTSYGKLTFGQGTILTVHP V domain 2: DVKVTQSSRYLVKRTGEKVFLECVQDMDHENMFWYRQDPGLGLRLIYFSYDVKMKEKGDIPEGYSVSREKKERFSLILESASTNQTSMYLCASSLWGRSSGNTIYFGEGSWLTVVE , and I need its recorded % cells in E6 tet+/CD8+ quadrant.
13.1
